# Target under test: Alpha-glucosidase MAL12 (Saccharomyces cerevisiae (strain ATCC 204508 / S288c), UniProt P53341)
# Sequence (P53341 whole entry): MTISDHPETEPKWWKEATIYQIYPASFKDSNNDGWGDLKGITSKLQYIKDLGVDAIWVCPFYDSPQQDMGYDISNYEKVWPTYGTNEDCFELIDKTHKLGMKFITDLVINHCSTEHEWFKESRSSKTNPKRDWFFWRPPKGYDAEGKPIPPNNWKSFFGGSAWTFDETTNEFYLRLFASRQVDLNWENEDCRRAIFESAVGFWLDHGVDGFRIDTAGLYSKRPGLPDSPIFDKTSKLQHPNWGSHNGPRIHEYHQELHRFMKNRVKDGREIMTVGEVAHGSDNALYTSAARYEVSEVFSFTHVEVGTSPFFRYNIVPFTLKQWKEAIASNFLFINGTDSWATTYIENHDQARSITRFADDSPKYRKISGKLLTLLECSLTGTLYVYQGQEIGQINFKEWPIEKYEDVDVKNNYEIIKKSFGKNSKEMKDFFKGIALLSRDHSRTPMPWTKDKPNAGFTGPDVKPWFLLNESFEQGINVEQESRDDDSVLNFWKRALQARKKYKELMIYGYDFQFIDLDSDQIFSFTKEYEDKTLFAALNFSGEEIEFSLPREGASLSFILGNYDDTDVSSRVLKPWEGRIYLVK
# Experiment summary: In vitro Assay of alpha-Glucosidasee Inhibitory Activity
# Condition notes: pH 6.8
Metric name: IC50 (µM)

Record excerpt, results attached:
{"Smiles string": "O=C(N/N=C/c1ccc(O)c(O)c1)c1nc(-c2cc3ccccc3oc2=O)cs1", "IC50, µM": 18.2}
{"Smiles string": "O=C(N/N=C/c1cccc(Cl)c1)c1nc(-c2cc3ccccc3oc2=O)cs1", "IC50, µM": 12}

[1] O=C(N/N=C/c1ccccc1F)c1nc(-c2cc3ccccc3oc2=O)cs1
[2] COc1ccc(/C=N/NC(=O)c2nc(-c3cc4ccccc4oc3=O)cs2)cc1
[in] Name the one with the greater IC50 value, either 1 or 2 as given. Your answer should be the label of the entry you select.
[out] 2
